Molecular target: T1, C-terminally FLAG-tagged human Gas6 recombinant protein (hGas6-F) (human, UniProt Q14393 31-678, gamma-carboxylated glutamic acid residues in the Gla domain (producer cells co-express rat VKOR and human GGCX); positions not given)
T1 construct: also called human Gas6-F; human Gas6 protein
T1 sequence: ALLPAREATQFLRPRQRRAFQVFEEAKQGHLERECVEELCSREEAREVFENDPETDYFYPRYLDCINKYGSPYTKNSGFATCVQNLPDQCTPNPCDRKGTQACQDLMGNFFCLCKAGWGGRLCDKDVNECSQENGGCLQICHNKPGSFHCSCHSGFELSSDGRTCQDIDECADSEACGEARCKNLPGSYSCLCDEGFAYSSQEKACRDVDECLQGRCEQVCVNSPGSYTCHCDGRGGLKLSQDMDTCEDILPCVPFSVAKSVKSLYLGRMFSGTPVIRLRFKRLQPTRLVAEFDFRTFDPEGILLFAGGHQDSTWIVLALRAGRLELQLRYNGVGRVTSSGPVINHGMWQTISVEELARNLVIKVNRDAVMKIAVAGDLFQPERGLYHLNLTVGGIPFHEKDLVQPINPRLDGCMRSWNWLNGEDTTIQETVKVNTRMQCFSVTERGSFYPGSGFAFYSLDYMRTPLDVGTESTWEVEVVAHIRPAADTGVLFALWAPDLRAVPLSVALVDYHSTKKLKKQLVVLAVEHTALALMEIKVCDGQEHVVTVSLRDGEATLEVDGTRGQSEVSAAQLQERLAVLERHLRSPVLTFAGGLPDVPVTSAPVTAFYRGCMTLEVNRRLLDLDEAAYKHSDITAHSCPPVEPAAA
Assay: SPR Biacore T100, captured antibody, Gas6 analyte, first test
MEASURED_ATTRIBUTE: Kd

hzKM5321 LV1bHV0 antibody (antibody, V domains shown, Humanized; variant human IgG4 constant region (EU S228P, L235E, R409K), human kappa; also called B-04; LV1bHV0) VH: QVHLVQSGSELKKPGASVKISCKASGYTFTNYGMNWVRQAPGQGLEWMGWINTNTGEPTYTEEFKGRFVFSLDTSVTTSYLQISTLKAEDTAVYFCARDEGWFVYWGQGTLVTVSS VL: ETTLTQSPSSLSASVGDRVTITCITSTDIDDDMNWYQQKPGKAPKLLISEGNTLRPGVPSRFSGSGSGTDFTLTISSLQPEDFADYYCLQTDSVPLTFGQGTKVEIK | < 4.26 nM

Ask: Entry hzKM5321 LV1aHV7 antibody (antibody, V domains shown, Humanized; variant human IgG4 constant region (EU S228P, L235E, R409K), human kappa; also called B-13; LV1aHV7) VH: QIHLVQSGPELKKPGASVKISCKASGYTFTNYGMNWVKQAPGQGLKWMGWINTNTGEPTYTEEFKGRFVFSLDTSVTTAYLQISTLKAEDTATYFCARDEGWFVYWGQGTLITVSS VL: ETTLTQSPSSLSASVGDRVTITCITSTDIDDDMNWYQQKPGKPPKLLISEGNTLRPGVPSRFSGSGSGTDFTLTISSLQPEDFATYYCLQTDSVPLTFGQGTKVEIK : reported Kd = ?
Result: < 6.83 nM
